Values of log10 of IC50 reported for Prothrombin (Homo sapiens, UniProt P00734) appear below.
Reminder: these figures are log10 of reported IC50, in µM before transformation.

Known value: Prothrombin (Homo sapiens, UniProt P00734) log10 of IC50 of the compound N=C(N)N1CCCC(C[C@H](NC(=O)CN2C(=O)CN(CCCc3ccccc3)C(=O)[C@H]2Cc2ccc(Cl)c(Cl)c2)C(=O)c2nccs2)C1 (stereo not given in full) equals -1.10

Known value: Prothrombin (Homo sapiens, UniProt P00734) log10 of IC50 of the compound Cc1ccc(CCCN2CC(=O)N(CC(=O)N[C@@H](CC3CCCN(C(=N)N)C3)C(=O)c3nccs3)[C@H](Cc3ccccc3)C2=O)cc1 (stereo not given in full) equals -0.68

Known value: Prothrombin (Homo sapiens, UniProt P00734) log10 of IC50 of the compound N=C(N)N1CCCC(C[C@H](NC(=O)CN2C(=O)CN(CCCc3ccc(Cl)c(Cl)c3)C(=O)[C@H]2Cc2ccccc2)C(=O)c2nccs2)C1 (stereo not given in full) equals -0.60

Known value: Prothrombin (Homo sapiens, UniProt P00734) log10 of IC50 of the compound COc1ccc(CCCN2CC(=O)N(CC(=O)N[C@@H](CC3CCCN(C(=N)N)C3)C(=O)c3nccs3)[C@H](Cc3ccccc3)C2=O)cc1 (stereo not given in full) equals -0.80

Known value: Prothrombin (Homo sapiens, UniProt P00734) log10 of IC50 of the compound N=C(N)N1CCCC(C[C@H](NC(=O)CN2C(=O)CN(CCCc3ccccc3)C(=O)[C@H]2Cc2cccc(Cl)c2)C(=O)c2nccs2)C1 (stereo not given in full) equals -0.41

Known value: Prothrombin (Homo sapiens, UniProt P00734) log10 of IC50 of the compound N=C(N)N1CCC[C@@H](C[C@H](NC(=O)CN2C(=O)CN(CCCc3ccccc3)C(=O)[C@H]2Cc2ccccc2)C(=O)c2nccs2)C1 equals -0.77

Known value: Prothrombin (Homo sapiens, UniProt P00734) log10 of IC50 of the compound N=C(N)N1CCCC(C[C@H](NC(=O)CN2C(=O)CN(Cc3ccccc3)C(=O)[C@@H]2Cc2ccc3ccccc3c2)C(=O)c2nccs2)C1 (stereo not given in full) equals -0.77

Known value: Prothrombin (Homo sapiens, UniProt P00734) log10 of IC50 of the compound N=C(N)N1CCCC(C[C@H](NC(=O)CN2C(=O)CN(CCc3ccccc3)C(=O)[C@H]2Cc2ccccc2)C(=O)c2nccs2)C1 (stereo not given in full) equals 0.00

Known value: Prothrombin (Homo sapiens, UniProt P00734) log10 of IC50 of the compound N=C(N)N1CCCC(C[C@H](NC(=O)CN2C(=O)CN(CCCc3ccccc3)C(=O)[C@H]2Cc2ccccc2)C(=O)N2CCCCC2)C1 (stereo not given in full) equals 0.82

Known value: Prothrombin (Homo sapiens, UniProt P00734) log10 of IC50 of the compound CC(C)c1ccc(CCCN2CC(=O)N(CC(=O)N[C@@H](CC3CCCN(C(=N)N)C3)C(=O)c3nccs3)[C@H](Cc3ccccc3)C2=O)cc1 (stereo not given in full) equals -0.43

Known value: Prothrombin (Homo sapiens, UniProt P00734) log10 of IC50 of the compound C[C@@H]1C(=O)N(CCCc2ccccc2)CC(=O)N1CC(=O)N[C@@H](C[C@@H]1CCCN(C(=N)N)C1)C(=O)c1nccs1 equals -0.06

Known value: Prothrombin (Homo sapiens, UniProt P00734) log10 of IC50 of the compound N=C(N)N1CCCC(C[C@H](NC(=O)CN2C(=O)CN(CCCc3ccc(Cl)cc3)C(=O)[C@H]2Cc2ccccc2)C(=O)c2nccs2)C1 (stereo not given in full) equals -0.96

Known value: Prothrombin (Homo sapiens, UniProt P00734) log10 of IC50 of the compound CNC(=O)[C@H](CC1CCCN(C(=N)N)C1)NC(=O)CN1C(=O)CN(CCCc2ccccc2)C(=O)[C@H]1Cc1ccccc1 (stereo not given in full) equals -0.36

Known value: Prothrombin (Homo sapiens, UniProt P00734) log10 of IC50 of the compound N=C(N)N1CCCC(C[C@H](NC(=O)CN2C(=O)CN(CCCc3ccccc3)C(=O)[C@H]2Cc2ccccc2)C(=O)c2nc3ccccc3s2)C1 (stereo not given in full) equals -0.82

Known value: Prothrombin (Homo sapiens, UniProt P00734) log10 of IC50 of the compound N=C(N)N1CCCC(C[C@H](NC(=O)CN2C(=O)CN(CCCc3ccccc3)C(=O)[C@H]2Cc2ccccc2Cl)C(=O)c2nccs2)C1 (stereo not given in full) equals -1.74
